Listing of recorded IC50 by entry.
# targetOrSystem: JH2 domain of human Tyk2 (Homo sapiens (Human))
# measurementDescription: JH2 Biochemical Assay (TR-FRET probe displacement)
# Type: binding
# conditionContext: TR-FRET probe displacement, JH2 domain

These recorded examples may help you get a feel for the data.
{"molecule": "CC(=O)Nc1cc(Nc2cc(C)nc(C(C)(F)F)n2)c(-c2cnc(C#N)cn2)cn1 [Example 838]", "IC50": "≤ 10 nM"}
{"molecule": "COc1cnc(-c2cnc(NC(C)=O)cc2Nc2cc(C)nc(C(C)(F)F)n2)cn1 [Example 815]", "IC50": "≤ 10 nM"}
{"molecule": "COCCOc1nccc(-c2cnc(NC(C)=O)cc2Nc2cc(C)nc(C(C)(F)F)n2)n1 [Example 776]", "IC50": "≤ 10 nM"}

What the record says about CC(=O)Nc1cc(Nc2cc(C(C)C)nc(C(C)(F)F)n2)c(F)cn1 [Example 817] : IC50 is 10 to 100 nM

====

# targetOrSystem: Tyk2 (Homo sapiens (Human), UniProt P29597)
# Sequence (P29597 whole entry): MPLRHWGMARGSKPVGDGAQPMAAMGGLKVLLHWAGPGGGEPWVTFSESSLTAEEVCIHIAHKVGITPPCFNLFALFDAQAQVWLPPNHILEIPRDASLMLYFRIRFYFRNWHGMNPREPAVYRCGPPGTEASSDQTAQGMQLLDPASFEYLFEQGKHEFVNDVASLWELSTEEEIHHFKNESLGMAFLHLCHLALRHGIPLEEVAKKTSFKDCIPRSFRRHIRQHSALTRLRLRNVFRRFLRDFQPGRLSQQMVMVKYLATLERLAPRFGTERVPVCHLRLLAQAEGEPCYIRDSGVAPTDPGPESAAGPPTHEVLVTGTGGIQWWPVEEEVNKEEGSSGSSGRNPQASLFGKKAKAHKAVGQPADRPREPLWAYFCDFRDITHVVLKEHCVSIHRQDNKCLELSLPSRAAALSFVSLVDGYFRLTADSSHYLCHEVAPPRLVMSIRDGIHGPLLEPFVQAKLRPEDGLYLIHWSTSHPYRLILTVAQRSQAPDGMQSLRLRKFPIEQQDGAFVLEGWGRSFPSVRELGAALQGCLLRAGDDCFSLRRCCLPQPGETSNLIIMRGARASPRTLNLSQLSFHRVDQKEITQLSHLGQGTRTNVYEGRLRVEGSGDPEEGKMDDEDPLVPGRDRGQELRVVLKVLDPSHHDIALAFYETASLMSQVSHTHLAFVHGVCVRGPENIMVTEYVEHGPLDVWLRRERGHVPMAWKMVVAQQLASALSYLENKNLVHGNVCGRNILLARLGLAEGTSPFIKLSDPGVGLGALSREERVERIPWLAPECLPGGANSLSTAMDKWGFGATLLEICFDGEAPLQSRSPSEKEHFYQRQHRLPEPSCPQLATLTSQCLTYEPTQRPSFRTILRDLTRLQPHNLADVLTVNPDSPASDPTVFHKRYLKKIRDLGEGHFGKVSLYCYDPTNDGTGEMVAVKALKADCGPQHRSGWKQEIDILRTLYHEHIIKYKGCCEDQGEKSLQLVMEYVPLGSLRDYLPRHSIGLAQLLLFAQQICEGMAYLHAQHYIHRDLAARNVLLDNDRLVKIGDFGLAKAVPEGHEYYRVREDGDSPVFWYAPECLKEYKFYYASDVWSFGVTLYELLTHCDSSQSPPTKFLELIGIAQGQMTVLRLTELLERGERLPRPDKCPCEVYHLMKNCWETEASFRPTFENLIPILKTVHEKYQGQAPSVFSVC
# measurementDescription: pSTAT4 Cell Assay (MSD, NK92 cells)
# Format: cell-based
# conditionContext: MSD
Structures can show the parent of a compound that is named as a salt.
parameter: IC50

These recorded examples may help you get a feel for the data.
{"compound": "Cc1cc(Nc2cc(NC(N)=O)ncc2-c2ccc(F)cn2)nc(C(C)(F)F)n1", "IC50": "≤ 10 nM"}
{"compound": "CC(=O)Nc1cc(Nc2cc(C)nc(C(C)(F)F)n2)c(OC(C)C)cn1", "IC50": "10 to 100 nM"}

What the record says about CCc1cc(Nc2cc(NC(C)=O)ncc2-c2nnc(C)s2)nc(C(C)(F)F)n1 : IC50 is ≤ 10 nM

What the record says about COC(C)(C)c1cc(-c2cnc(NC(C)=O)cc2Nc2cc(C)nc(C(C)(F)F)n2)ncn1 : IC50 is 100 to 1000 nM

What the record says about CCOc1cnc(NC(C)=O)cc1Nc1cc(OC2CC(F)C2)nc(C(C)(F)F)n1 (centres unmarked) [Example 457, trifluoroacetate] : IC50 is 10 to 100 nM

What the record says about COCCn1ccc(-c2cnc(NC(C)=O)cc2Nc2cc(C)nc(C(C)(F)F)n2)n1 : IC50 is ≤ 10 nM

What the record says about CC(=O)Nc1cc(Nc2cc(C)nc(C(C)(F)F)n2)c(-c2cccc(C3CCCCO3)n2)cn1 (centres unmarked) : IC50 is ≤ 10 nM

What the record says about CCCn1ccc(-c2cnc(NC(C)=O)cc2Nc2ccnc(C(C)(F)F)n2)n1 : IC50 is ≤ 10 nM

====

# targetOrSystem: JH2 domain of human Tyk2 (Homo sapiens (Human), UniProt P29597)
# Sequence (P29597 575-876): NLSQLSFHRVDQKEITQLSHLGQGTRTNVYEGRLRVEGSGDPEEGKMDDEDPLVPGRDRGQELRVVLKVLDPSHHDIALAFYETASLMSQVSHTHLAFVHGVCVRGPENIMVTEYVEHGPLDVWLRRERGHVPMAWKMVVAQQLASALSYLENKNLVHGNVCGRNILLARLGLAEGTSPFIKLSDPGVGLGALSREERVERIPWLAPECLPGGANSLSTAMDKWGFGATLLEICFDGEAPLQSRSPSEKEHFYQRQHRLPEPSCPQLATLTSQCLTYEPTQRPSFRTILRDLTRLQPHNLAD
# measurementDescription: JH2 Biochemical Assay (TR-FRET probe displacement)
# Assay type: binding
# conditionContext: JH2 domain of human Tyk2, TR-FRET probe displacement
pIC50: −log10 of the molar value.
parameter: pIC50

These recorded examples may help you get a feel for the data.
{"compound": "CCOc1cnc(NC(C)=O)cc1Nc1cc(C)nc(C(F)(F)CC)n1", "targetOrSystem": "JH2 domain of human Tyk2 (Homo sapiens (Human), UniProt P29597)", "pIC50": "≥ 8.00"}
{"compound": "CCS(=O)(=O)n1ccc(-c2cnc(NC(C)=O)cc2Nc2cc(C)nc(C(C)(F)F)n2)n1", "targetOrSystem": "JH2 domain of human Tyk2 (Homo sapiens (Human), UniProt P29597)", "pIC50": "≥ 8.00"}
{"compound": "CC(=O)Nc1cc(Nc2cc(C)nc(C(C)(F)F)n2)c(-c2ncc(C#N)cc2F)cn1", "targetOrSystem": "JH2 domain of human Tyk2 (Homo sapiens (Human), UniProt P29597)", "pIC50": "7.00 to 8.00"}
{"compound": "CCOc1cnc(NC(C)=O)cc1Nc1cc(OC2CC(F)(F)C2)nc(C(C)(F)F)n1", "targetOrSystem": "JH2 domain of human Tyk2 (Homo sapiens (Human), UniProt P29597)", "pIC50": "≥ 8.00"}
{"compound": "COc1ccc(-c2cc(Nc3cc(NC(C)=O)ncc3OC)nc(C(C)(F)F)n2)cn1 [Example 391]", "targetOrSystem": "JH2 domain of human Tyk2 (Homo sapiens (Human), UniProt P29597)", "pIC50": "≥ 8.00"}
{"compound": "CC(=O)Nc1cc(Nc2ccnc(C(C)(F)F)n2)c(-c2cncc(OC(F)F)n2)cn1", "targetOrSystem": "JH2 domain of human Tyk2 (Homo sapiens (Human), UniProt P29597)", "pIC50": "7.00 to 8.00"}

What the record says about COc1cnc(NC(C)=O)cc1Nc1cc(C)nc(C23COC(C)(C2)C3)n1 : pIC50 is 6.00 to 7.00

What the record says about CC(=O)Nc1cc(Nc2ccnc(C(C)(F)F)n2)c(-c2ncccc2F)cn1 : pIC50 is 7.00 to 8.00

What the record says about CCc1cc(Nc2cc(NC(C)=O)ncc2OCCF)nc(C(C)(F)F)n1 : pIC50 is ≥ 8.00

What the record says about CCOc1cnc(NC(C)=O)cc1Nc1cc(-c2cncc(OC)c2)nc(C(C)(F)F)n1 : pIC50 is ≥ 8.00

What the record says about COc1nc(-c2cnc(NC(C)=O)cc2Nc2ccnc(C(C)(F)F)n2)cs1 : pIC50 is ≥ 8.00

What the record says about COC1(COc2cnc(NC(C)=O)cc2Nc2cc(C)nc(C(C)(F)F)n2)CCC1 : pIC50 is ≥ 8.00

What the record says about CC(=O)Nc1cc(Nc2cc(C)nc(C(C)(F)F)n2)c(-c2cnc(COC(F)F)cn2)cn1 : pIC50 is ≥ 8.00

What the record says about CC(=O)Nc1cc(Nc2cc(C)nc(C(C)(F)F)n2)c(OCC2COCC3(CCC3)O2)cn1 (centres unmarked) : pIC50 is ≥ 8.00

What the record says about CC(=O)Nc1cc(Nc2cc(C)nc(C(C)(F)F)n2)c(-c2ccc(CN3CCOCC3)cn2)cn1 : pIC50 is ≥ 8.00

What the record says about CC(=O)Nc1cc(Nc2ccnc(C(C)(F)F)n2)c(-c2ccc(CN3C[C@H]4C[C@@H](C3)O4)cn2)cn1 : pIC50 is ≥ 8.00

What the record says about COCCOc1cnc(NC(C)=O)cc1Nc1nc(C)cc(C(C)(C)F)n1 : pIC50 is ≥ 8.00

====

# targetOrSystem: Tyk2 (Homo sapiens (Human), UniProt P29597)
# measurementDescription: pSTAT4 Cell Assay (MSD, NK92 cells)
# Assay type: cell-based
# conditionContext: MSD
pIC50: −log10 of the molar value.
Listing of recorded pIC50 by entry.

These recorded examples may help you get a feel for the data.
{"molecule": "CC(=O)Nc1cc(Nc2ccnc(C3CCOC3)n2)c(-c2ccn(C)n2)cn1 (centres unmarked)", "observedValue": "7.00 to 8.00"}
{"molecule": "CC(=O)Nc1cc(Nc2ccnc(C(C)(F)F)n2)c(-c2cnn(C3CCC3)c2)cn1", "observedValue": "≤ 6.00"}
{"molecule": "COCCOc1cnc(NC(C)=O)cc1Nc1cncc(C(F)CF)n1 (centres unmarked)", "observedValue": "7.00 to 8.00"}
{"molecule": "CCOc1cnc(NC(C)=O)cc1Nc1cc(C)nc(C(F)(F)CC)n1", "observedValue": "6.00 to 7.00"}
{"molecule": "CC(=O)Nc1cc(Nc2cc(C)nc(C(C)(F)F)n2)c(OCc2nccs2)cn1", "observedValue": "7.00 to 8.00"}
{"molecule": "CO[C@H]1C[C@H](Oc2cnc(NC(C)=O)cc2Nc2cc(OC3CC3)nc(C(C)(F)F)n2)C1", "observedValue": "7.00 to 8.00"}
{"molecule": "CC(=O)Nc1cc(Nc2cc(C)nc(C(C)(F)F)n2)c(-c2cc3n(n2)CCN(C)C3C)cn1 (centres unmarked)", "observedValue": "≥ 8.00"}

// below: pIC50 requested for another molecule
What the record says about [2H]C([2H])([2H])C([2H])([2H])Oc1cnc(NC(C)=O)cc1Nc1cc(C(C)C)nc(C(C)(F)F)n1 : pIC50 is 7.00 to 8.00

====

Listing of recorded pIC50 by entry.
# targetOrSystem: UniProtKB P29597
# measurementDescription: pSTAT4 Cell Assay (MSD, NK92 cells)
# Type: cell-based
# conditionContext: MSD
pIC50: −log10 of the molar value.

These recorded examples may help you get a feel for the data.
{"compound": "CC(=O)Nc1cc(Nc2cc(C)nc(C(C)(F)F)n2)c(OCC(C)OC(C)(C)C)cn1 (stereo not shown)", "pIC50": "7.00 to 8.00"}
{"compound": "CC(=O)Nc1cc(Nc2cc(C)nc(C(C)(F)F)n2)c(OCc2ccccn2)cn1", "pIC50": "7.00 to 8.00"}
{"compound": "COc1cnc(NC(C)=O)cc1Nc1cc(-c2cnn(C3CCC3)c2)nc(C(C)(F)F)n1", "pIC50": "6.00 to 7.00"}

What the record says about CC(=O)Nc1cc(Nc2cc(C)nc(C(C)(F)F)n2)c(-c2ccc(N3CCN(C)CC3)cn2)cn1 : pIC50 is ≥ 8.00
